All values here come from the supplement of paper PMC13380429.

Quick reference for SARS-CoV-2 infection rate among some compounds
System: Vero E6 infected with SARS-CoV-2
Test: SARS-CoV-2 infection rate relative to infected DMSO; higher = more infection, active = 60 or less
Conditions: 24 h
Please state the figure in %; there is no need to write the unit.

input: Fill in: SARS-CoV-2 infection rate of O=C(NC[C@H]1CN(c2ccc(N3CCOCC3=O)cc2)C(=O)O1)c1ccc(Cl)s1 [Rivaroxaban (Xarelto)] (10 µM) is ___
output: 97.5

input: And the next one, CC1=C(C(=O)O)N2C(=O)[C@@H](NC(=O)[C@H](N)c3ccccc3)[C@H]2SC1 [cephalexin] (10 µM) ?
output: 112
